Values from PubChem BioAssay

- assay: viability loss with induced miR-34 in A549 – imaging, A549 dox-inducible miR-34, nuclei and caspase counts, primary screen (AID 1347080); note: test concentration not given here
- experimentalParameters: A549 miR-34 inducible, Hoechst nuclei count, 48 h; measured here: total cells without miR-34 induction
measuredParameter: cell count

{"columns": ["compound", "measuredParameter", "readoutValue"],
 "data": [
  ["OC1CCC(Nc2nc(-c3ccccc3)nc3[nH]ccc23)CC1 (stereo unspecified)", "cell count", 9220],
  ["COc1ccc(/C=C/C(=O)CC(=O)/C=C/c2cccc(O)c2OC)cc1O", "cell count", 3790],
  ["CC[C@H](CO)Nc1nc(NCc2ccccc2)c2ncn(C(C)C)c2n1", "cell count", 1060],
  ["O=C(O)CCC/C=C\\C[C@@H]1[C@@H](/C=C/C(F)(F)COc2ccccc2)[C@H](O)C[C@@H]1O", "cell count", 5440],
  ["O=C(O)CCC/C=C/C[C@@H]1[C@@H](/C=C/[C@@H](O)COc2cccc(C(F)(F)F)c2)[C@H](O)C[C@@H]1O", "cell count", 6570],
  ["BrC1C(Br)C(Br)C(Br)C(Br)C1Br (stereo unspecified)", "cell count", 7680],
  ["CC1CCC(C(=O)N(c2cc(C#CC(C)(C)C)sc2C(=O)O)C2CCC(O)CC2)CC1 (stereo unspecified)", "cell count", 8210],
  ["CC(=O)N1CCN(C)CC1", "cell count", 8720],
  ["NC(C(=O)O)c1nn[nH]n1 (stereo unspecified)", "cell count", 9360],
  ["COc1ccc(Cn2ccc3ccc(C(=O)NO)cc32)cc1", "cell count", 6690],
  ["N[C@@H](Cc1ccc(O)c([N+](=O)[O-])c1)C(=O)O", "cell count", 6080]
]}
